System: LOX IMVI
Test: NCI tumour cell line growth inhibition, 48 h
Calls of active or inactive are those of the source. Rule as the data show it: active = GI50 up to about 1.1 µM and inactive = higher.
Pick one and only one: active, inactive

// below: answered compounds
O=C1C=Cc2cscc21 = inactive
CC(CC[C@@H](C)C1CCC2[C@@H]3CC(O)C4CC(O)[C@@H](O)C[C@]4(C)C3CC[C@@]21C)C(C)(C)C (some centres not stated) = inactive
CC(C)=CCc1c(O)ccc2c1OC1c3ccc(O)c(CC=C(C)C)c3OCC21 (configuration not stated) = inactive
CC1CC(C)(C)CC(OCCN2CCCCC2)(c2ccccc2)C1 (configuration not stated) = inactive
CCCCN1C=CN2c3nc4cc(C)c(C)cc4n3C(C(=O)OC)=C(C(=O)OC)C12 (configuration not stated) = inactive
CC(=O)C(CN(C(C)C)C(C)C)C(c1ccccc1)c1c(O)c2ccccc2oc1=O (configuration not stated) = inactive

In the following, a different compound is considered.
## Task Any idea what this test logged for C=CCNC(=O)C(C)C1CCC2(C)C=CC(=O)C(C)=C2C1O (configuration not stated) ?
## Result inactive
